test: Toxicity liver stage against HepG2, at 10uM; assay type: cell-based; design: test concentration 10 uM, cell line HepG2-A16-CD81EGFP; conditions: human, HepG2-A16-CD81EGFP cells; read-out: INHIBITION
Overview of reported cytotoxicity at 10 µM across a group of compounds:

>  <compound>
Cc1cccc(N2CCN(CCC(=O)NCc3nnc[nH]3)CC2)c1

>  <cytotoxicity at 10 µM [%]>
-6.26

$$$$
>  <compound>
CN1CC[C@H](c2ccccc2)[C@@H]2[C@H]1CCCCN2C(=O)c1cnccn1

>  <cytotoxicity at 10 µM [%]>
-2.5

$$$$
>  <compound>
Cc1nn(C)c2c(NCc3cccnc3)nc(C(C)C)nc12

>  <cytotoxicity at 10 µM [%]>
10.5

$$$$
>  <compound>
CN1C[C@@H](F)[C@@H](OCc2nc3ccc(C#N)cc3[nH]2)C1

>  <cytotoxicity at 10 µM [%]>
0.434

$$$$
>  <compound>
Cc1ncsc1CN1C[C@@H]2COC[C@]2(C(=O)NC(C)C)C1

>  <cytotoxicity at 10 µM [%]>
-98.6

$$$$
>  <compound>
OCC1(Cc2ccc(Cl)cc2)CCN(Cc2cccnc2)CC1

>  <cytotoxicity at 10 µM [%]>
-45.6

$$$$
>  <compound>
O=C(c1cc[nH]n1)N1CCC(F)(F)C2(CCN(c3ccccn3)C2)C1 (stereo unspecified)

>  <cytotoxicity at 10 µM [%]>
2.38

$$$$
>  <compound>
CCOCCCNC(=O)c1cc(OC)c2ccoc2c1

>  <cytotoxicity at 10 µM [%]>
6.51

$$$$
>  <compound>
O=C(NCc1ccccc1Cn1cncn1)C1CCC1

>  <cytotoxicity at 10 µM [%]>
-4.43

$$$$
>  <compound>
CN(C)[C@@H]1CN(C(=O)c2ccc(C#N)cc2)[C@@H]2CCCO[C@H]12

>  <cytotoxicity at 10 µM [%]>
-146

$$$$
>  <compound>
CCC(O)CNC(=O)c1coc(COc2ccc3sc(C)nc3c2)n1 (stereo unspecified)

>  <cytotoxicity at 10 µM [%]>
16.3

$$$$

----------
test: Toxicity liver stage against HepG2, at 10uM; assay type: cell-based; parameters: test concentration 10 uM, cell line HepG2-A16-CD81EGFP; conditions: human, HepG2-A16-CD81EGFP cells; read-out: INHIBITION
propertyMeasured: cytotoxicity at 10 µM (%)

>  <compound>
OC1(CNCc2ccc(F)c(C(F)(F)F)c2)CCSCC1

>  <propertyMeasured>
cytotoxicity at 10 µM

>  <valueUnits>
%

>  <measuredValue>
5.1

$$$$
>  <compound>
COc1ccccc1Oc1ncccc1CNC(=O)[C@@H](N)CCO

>  <propertyMeasured>
cytotoxicity at 10 µM

>  <valueUnits>
%

>  <measuredValue>
-17.5

$$$$
>  <compound>
Nc1nccnc1C(=O)N(Cc1ccco1)CC1CCCO1 (stereo not drawn)

>  <propertyMeasured>
cytotoxicity at 10 µM

>  <valueUnits>
%

>  <measuredValue>
8.13

$$$$
>  <compound>
COC(=O)CN(Cc1ccccc1C)C(=O)CCCNC(=O)C1CC1

>  <propertyMeasured>
cytotoxicity at 10 µM

>  <valueUnits>
%

>  <measuredValue>
-13.4

$$$$
>  <compound>
CCn1c(C(=O)N2CCN(CC[S+](C)[O-])CC2)cc2ccccc21 (stereo not drawn)

>  <propertyMeasured>
cytotoxicity at 10 µM

>  <valueUnits>
%

>  <measuredValue>
-3.49

$$$$
>  <compound>
CCc1cc(=O)n(CC(=O)N2CCCCC2)c(-c2cccc(F)c2)n1

>  <propertyMeasured>
cytotoxicity at 10 µM

>  <valueUnits>
%

>  <measuredValue>
11.4

$$$$
>  <compound>
Cc1ccc(NC(=O)C2CCc3ccccc3N2)cc1 (stereo not drawn)

>  <propertyMeasured>
cytotoxicity at 10 µM

>  <valueUnits>
%

>  <measuredValue>
-5.57

$$$$
>  <compound>
CCC1=NC(SCC(=O)c2ccccc2)c2cc(CC)sc2N1 (stereo not drawn)

>  <propertyMeasured>
cytotoxicity at 10 µM

>  <valueUnits>
%

>  <measuredValue>
-12.5

$$$$
>  <compound>
c1cnn(CC2CN(CCc3ccncc3)CCO2)c1 (stereo not drawn)

>  <propertyMeasured>
cytotoxicity at 10 µM

>  <valueUnits>
%

>  <measuredValue>
2.74

$$$$
>  <compound>
O=C1CC[C@H]2[C@H](CCN2C(=O)c2ccc[nH]2)N1CCN1CCOCC1

>  <propertyMeasured>
cytotoxicity at 10 µM

>  <valueUnits>
%

>  <measuredValue>
3.3

$$$$
>  <compound>
Cc1cccc(N2CCC3(CCCN3Cc3cn(C)nc3C)CC2)n1

>  <propertyMeasured>
cytotoxicity at 10 µM

>  <valueUnits>
%

>  <measuredValue>
-4.78

$$$$
>  <compound>
Cc1cc(C)c2c(N3CCC(C(=O)N4CCCC4)CC3)ncnc2n1

>  <propertyMeasured>
cytotoxicity at 10 µM

>  <valueUnits>
%

>  <measuredValue>
-0.218

$$$$
>  <compound>
CC(C)c1ccc2c(c1)CCCN2C(=O)CN(C)S(C)(=O)=O

>  <propertyMeasured>
cytotoxicity at 10 µM

>  <valueUnits>
%

>  <measuredValue>
3.78

$$$$
>  <compound>
CCOC1CCN(C(=O)NCCc2ccn(-c3ccccc3)n2)CC1

>  <propertyMeasured>
cytotoxicity at 10 µM

>  <valueUnits>
%

>  <measuredValue>
-0.088

$$$$
>  <compound>
Cc1ccc(C(=O)NCCC2CCN(C)CC2)cc1N(C)S(C)(=O)=O

>  <propertyMeasured>
cytotoxicity at 10 µM

>  <valueUnits>
%

>  <measuredValue>
-15.1

$$$$
>  <compound>
COc1ccc2c(c1)OCC(Cc1ccc(N)cn1)C2 (stereo not drawn)

>  <propertyMeasured>
cytotoxicity at 10 µM

>  <valueUnits>
%

>  <measuredValue>
-1.91

$$$$
>  <compound>
COCCOc1ccc(NC(=O)N(C(C)C)C2CC2)cn1

>  <propertyMeasured>
cytotoxicity at 10 µM

>  <valueUnits>
%

>  <measuredValue>
-9.59

$$$$
>  <compound>
Cc1noc(C)c1-c1ccnc(C2CCN(C3CCOCC3)CC2)c1

>  <propertyMeasured>
cytotoxicity at 10 µM

>  <valueUnits>
%

>  <measuredValue>
-28.7

$$$$
>  <compound>
CN(Cc1cscn1)C(=O)C(c1ccccc1)N1CCSCC1 (stereo not drawn)

>  <propertyMeasured>
cytotoxicity at 10 µM

>  <valueUnits>
%

>  <measuredValue>
9.26

$$$$
>  <compound>
CS(=O)(=O)N1C[C@H]2CNC[C@@]2(C(=O)NCCOc2ccccc2)C1

>  <propertyMeasured>
cytotoxicity at 10 µM

>  <valueUnits>
%

>  <measuredValue>
2.1

$$$$
>  <compound>
COCCOC(=O)N1CCN2C[C@@H](CO)[C@H](c3ccccc3)[C@H]2C1

>  <propertyMeasured>
cytotoxicity at 10 µM

>  <valueUnits>
%

>  <measuredValue>
3.44

$$$$
>  <compound>
O=C(c1cnc2ccc(F)cc2c1NCc1ccccn1)N1CCCC1

>  <propertyMeasured>
cytotoxicity at 10 µM

>  <valueUnits>
%

>  <measuredValue>
3

$$$$
>  <compound>
Cc1cc(NC(=O)Cn2cc(C#N)c(=O)c3cc(Br)ccc32)no1

>  <propertyMeasured>
cytotoxicity at 10 µM

>  <valueUnits>
%

>  <measuredValue>
16.5

$$$$

----------
assay: Toxicity liver stage against HepG2, at 10uM; format: cell-based; design: test concentration 10 uM, cell line HepG2-A16-CD81EGFP; conditions: human, HepG2-A16-CD81EGFP cells; read-out: INHIBITION
propertyMeasured: cytotoxicity at 10 µM (%)

>  <compound>
CN(C)C(=O)C1CN(Cc2ccccc2)CCN(S(C)(=O)=O)C1 (stereo unspecified)

>  <measuredValue>
-5.43

$$$$
>  <compound>
COc1ccnc(N2CCCN(Cc3ncc(C(C)C)o3)CC2)n1

>  <measuredValue>
1.74

$$$$
>  <compound>
COc1ccc2c(c1)CCCN2C(=O)CN1CCOC(CN(C)C)C1 (stereo unspecified)

>  <measuredValue>
-2.93

$$$$
>  <compound>
Cc1ccc(N2CCCC(NCc3cccc4c3OCCO4)C2)nn1 (stereo unspecified)

>  <measuredValue>
-1.69

$$$$
>  <compound>
CSc1ncccc1C(=O)N1CCC(c2nc3c(C)cccc3[nH]2)CC1

>  <measuredValue>
-20

$$$$
>  <compound>
Cn1cc(S(=O)(=O)NC(CO)Cc2c[nH]c3ccccc23)cn1 (stereo unspecified)

>  <measuredValue>
-7.37

$$$$
>  <compound>
COc1ccc(Nc2nc(N)c(C(C)=O)s2)cc1Cl

>  <measuredValue>
0.833

$$$$
>  <compound>
CS(=O)(=O)NC[C@@H]1OC[C@H]2CN(C(=O)c3ccccc3)CC[C@H]21

>  <measuredValue>
10.3

$$$$
>  <compound>
CN1CCO[C@@H]2CN(S(=O)(=O)c3cccnc3)C[C@@H]2C1

>  <measuredValue>
6.17

$$$$
>  <compound>
CC1CCC(NCCCN2CCOCC2)CC1 (stereo unspecified)

>  <measuredValue>
-6.58

$$$$
>  <compound>
CC(=O)N1Cc2ccccc2C[C@H]1C(=O)Nc1ccccn1

>  <measuredValue>
-3.09

$$$$
